# Test system: HL-60(TB) leukemia
# Procedure text: NCI-60 one-dose screen, 48 h (100 = growth as untreated, 0 = no growth, -100 = all killed)
# Details: 10 µM unless noted
Compounds without any hit were thinned out: in the full panel of roughly 83,000, 20% have a hit.
I'd be grateful if you could share measured growth for these entries.
Give bare numbers, in %.

Here is how some molecules turned out for growth.
Compound smiles: Cn1cc(-c2nc(N)nnc2-c2c[nH]c3ccc(Br)cc23)c2cccnc21
Measurement: 5.1
//
Compound smiles: CCCCNC(=S)Nc1ccc(OCc2nc3ccccc3[nH]2)cc1
Measurement: 31.7
//
Compound smiles: O=C(CN1CCN(c2ncnc3c2cnn3-c2ccccc2)CC1)Nc1ccc(Br)cc1
Measurement: 64.3
//
Compound smiles: CC(=O)Nc1ccc(-c2cn(-c3cccc(C(=O)Nc4cccc(OC(F)(F)F)c4)c3)nn2)cn1
Measurement: 95.1
//
Compound smiles: COc1cccc2nc(Nc3cccc(NC(=O)c4ccc(CN5CCN(C)CC5)c(C(F)(F)F)c4)c3)ccc12
Measurement: -53.1

Record growth for all entries; do not skip any.
1. C=CC(=O)Nc1ccc(C)c(Oc2ccc(Cl)cc2)c1
2. COc1ccc(/C=C/c2n(Cc3ccc4ccccc4c3)c3ccccc3[n+]2Cc2ccc3ccccc3c2)cc1
3. Cc1ccc(-c2nc(C#N)c(S(=O)(=O)N3CCN(S(=O)(=O)c4ccc(Cl)cc4)CC3)o2)cc1
4. O=C(CSc1nnc(-c2c[nH]c3ccccc23)n1-c1ccccc1)c1ccccc1

Given back:
54
-5.59
79.9
87.2

====

# System: MDA-MB-468 breast
# Procedure text: NCI-60 one-dose screen, 48 h (100 = growth as untreated, 0 = no growth, -100 = all killed)
# Details: 10 µM unless noted
About 83,000 compounds went through this panel and 20% of them were active in at least one assay; those are over-represented in the sample as a whole.
I'd be grateful if you could share measured growth for these entries.
Give bare numbers, in %.

Compound: CN1C(=O)[C@]23SSC1(C)C(=O)N2[C@H]1Nc2ccccc2C1([C@@]12c4ccccc4N[C@@H]1N1C(=O)C4(C)SS[C@]1(C(=O)N4C)[C@H]2O)[C@@H]3O (some centres undefined)
growth [%]: -88.9
--
Compound: [Br][Pb]([c]1ccccc1)([c]1ccccc1)[c]1ccccc1
growth [%]: -88.2
--
Compound: C[C@H]1[C@@H](Oc2ccc(-c3cn(-c4ccnc5cc(Cl)ccc45)nn3)cc2)O[C@@H]2OC3(C)CC[C@H]4[C@H](C)CC[C@@H]1[C@@]24OO3
growth [%]: 36.9

From here, focus on the item given below.
// field: growth; key: CCCCCN(CCCCC)CC(O)c1ccc(C)c(Cl)c1 (centres undefined) ; value = 99.9

====

# Test system: SK-MEL-28 melanoma
# Procedure text: NCI-60 one-dose screen, 48 h (100 = growth as untreated, 0 = no growth, -100 = all killed)
# Details: 10 µM
# Description: Growth inhibition of the SK-MEL-28 human tumor cell line is measured as a screen for anti-cancer activity. Cells are grown in 96 well plates and exposed to the test compound for 48 hours. Compounds are tested at a single concentration, which is 10^-5 M for most compounds. The reported endpoint is percent growth (GI% or GIPRCNT), where numbers from 0 - 100% represent growth inhibition, and numbers from -100% - 0 represent cell death. For example, a value of 40 represents 60% growth inhibition. […]
This is part of a sample that, as a whole, favours compounds with a hit. Of some 83,000 tested, about 20% had one in any assay.
Rule: growth under -50% gives Condition not met, otherwise Condition met.

Illustrative cases are given below, each with its answer.
Molecule: COc1ccc(OC)c(/C=C/C(=O)c2nc3ccccc3n2Cc2ccc(F)cc2)c1
Target desc: SK-MEL-28 melanoma
Label class: Condition not met
//
Molecule: O=C(/C=C/c1ccc(Br)cc1)c1nc2ccccc2n1Cc1ccc(Br)cc1
Target desc: SK-MEL-28 melanoma
Label class: Condition met
//
Molecule: CC(=O)Oc1ccccc1C(=O)[Se]C(=NC(C)C)NC(C)C
Target desc: SK-MEL-28 melanoma
Label class: Condition not met
//
Molecule: C#CCCCN(CCNc1ccnc2cc(Cl)ccc12)C(=O)CCC(=O)O[C@@H]1O[C@@H]2OC3(C)CC[C@H]4[C@H](C)CC[C@@H]([C@H]1C)[C@@]24OO3
Target desc: SK-MEL-28 melanoma
Label class: Condition met
//
Molecule: CC[C@]12C=CCN3CC[C@@]4(c5ccc(OC)cc5N(C)[C@H]4[C@@](O)(C(=O)OC)[C@@H]1OC(=O)CCC[P+](c1ccc(C)cc1)(c1ccc(C)cc1)c1ccc(C)cc1)[C@@H]32
Target desc: SK-MEL-28 melanoma
Label class: Condition not met
//
Molecule: CC(=O)Oc1ccccc1C(=O)NC([Se])=NC1CCCCC1
Target desc: SK-MEL-28 melanoma
Label class: Condition met
//
Molecule: O=C(/C=C/c1ccccc1Cl)c1nc2ccccc2n1Cc1ccc(F)cc1
Target desc: SK-MEL-28 melanoma
Label class: Condition not met
//
Molecule: CCOC(=O)C1=C(Nc2ccccc2)C(=O)OC12C(=O)Nc1ccccc12 (centres undefined)
Target desc: SK-MEL-28 melanoma
Label class: Condition met

Lab note: next molecule to report on.
Asked: Given CC12OOC(C)(OO1)C2CCC(=O)NCCCNc1ccnc2cc(Cl)ccc12 (centres undefined) , state whether its growth is at least -50%.
Given back: Condition met
